FYI, the data here is from the nanobody polyreactivity screen of Harvey et al. (2022).

Test: yeast display, Sf9 membrane polyspecificity reagent, FACS + sequencing; frameworks hold sequencing errors
assayMetric: polyreactivity (PSR sort gate)

QVQLVESGGGLVQAGGSLRLSCAATGSIFSLYAMGWYRQSPGKERELVADITYSGGNTYYADSVKGRFTISRDNAKNTVYLHMNSLKPEDTAVYYCNAYYFDYWYWYDYWGQGTQVTVSS = high polyreactivity
QVQLVESGGGLVQAGGSLRLSCAASGRTFPAYAMGWYRQAPGKERELVAAISYSGGRTRYADSVKGRFTISRDNAMNSVYLQMNSLKPEDTAVYFCNRVIPTQSLRDYYWGQGTQVTVSS = high polyreactivity
QVQLVESGGGLVQEGGSLRLSCAASGFIFSFYVMGWYRQAPGKERELVAAISTSGASTYYADSVKGRFTISRDNAKNTVYLQMNSLKQEDTAVYYCNVVYRYGGYIYWGQGTQVTVSS = high polyreactivity
QVQLVESGGGLVQAGGSLRLSCAASGAIFVPYAMGWYRQAPGKERELVAAITYSDGSTYYADSVKGRFTISRDNAKNTVYLQMNSLKPEDTAVYYCAAEWIEFPDPVSWYYYTPYYYWGQGTQVTVSS = high polyreactivity
QVQLVESGGGLVQAGGSLRLSCAASGYTFQPYTMGWYRQAPGKERELVAAISKSGTRTYYADSVKGRFTISRDNEKNTVYLQMNSLKPEDTAVYYCAARYTGFLFDYWGQGTQVTVSS = high polyreactivity

# return recorded polyreactivity (PSR sort gate) for entry QVQLVESGGGLVQAGGSLRLSCAASGSTFTLYAMGWYRQAPGKERELVATITGSGGSTNYADSVKGRFTISRDNAKNTVYLQMNSLKPEDTAVYYCAADYAVYSFTDFNYWGQGTQVTVSS high polyreactivity

Read the entry QVQLVESGGGLVQAGGSLRLSCAASGRTFGINAMGWYRQAHGKERELVAVISFGDGGTYYADSVKGRFTISRDNAKNTVYLQMNSLKPEDTAVYYCATDYQSTSVWGGHFVINPYDYWGQGTQVTVSS and write its reported polyreactivity (PSR sort gate). low polyreactivity

Return the recorded polyreactivity (PSR sort gate) value; entry: QVQLVESGGGLDQAGGSLRLSWAASGFTFKNYTMGWYRQAPGKERELVAAISKSGDITYYADSVKGRFTISRDNAKNTVYLQMNSLKPEDTAVYYCNAPRRNWSYDYWGQGTQVTVSS high polyreactivity
